Recorded normalized growth values for a group of compounds are listed next.
Assay: chemical genetic growth profiling, strain panel (AID 1159580);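 further: tested at 20 µM; growth read once vehicle control cultures reached saturation at 30 °C; 1 = growth at the plate median or of vehicle wells; lower values mean less growth of the strain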
Settings: S. cerevisiae deletion strains, growth OD, locus YIL125W, strain kgd1, stronger effect = lower value
About 2,000 (36%) of roughly 5,500 compounds were called active. Another 18% or so got no clear call; they are omitted. The list shows a part of the results.
Answer field: number only, no words.

CC1(C)O[C@@H]2CC3C4CCC5=CC(=O)C=C[C@]5(C)[C@@]4(F)[C@@H](O)C[C@]3(C)[C@]2(C(=O)CO)O1 (some centres undefined) ... 0.998
CC(=O)N(O)CCCCCNC(=O)CCC(=O)N(O)CCCCCNC(=O)CCC(=O)N(O)CCCCCN ... 1.04
CCOC(=O)C1C(C=C(C)C)C1(C)C (centres undefined) ... 1.01

# input Retrieve normalized growth measured for CCn1cc(C(=O)O)c(=O)c2cc(F)c(N3CCNCC3)cc21 and print it.
# output 1

###

Assay: chemical genetic growth profiling, strain panel (AID 1159580);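 further: tested at 20 µM; growth read once vehicle control cultures reached saturation at 30 °C; 1 = growth at the plate median or of vehicle wells; lower values mean less growth of the strain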
Details: S. cerevisiae deletion strains, growth OD, locus YOR106W, strain vam3, stronger effect = lower value
Screen size: about 5,500 compounds; about 2,000 (36%) were called active. About 18% were inconclusive and are not listed. The list shows a part of the results.
Quick rule for you: normalized growth under 1 gets true, anything else gets false.

Before answering, review these 4 worked examples.
COc1cc2c(cc1OC)-c1cc3ccc(OC)c(OC)c3c[n+]1CC2 ... true
COc1ccc(-c2cc(=O)c3ccccc3o2)cc1 ... true
CCCCCCc1ccc(O)cc1O ... true
NCC(=O)CCC(=O)O ... true

# input Regarding S=c1ccss1 , kindly confirm whether its normalized growth is beneath 1.
# output true

# input Regarding COc1ccc(-c2cc(=O)c3ccccc3o2)cc1OC , kindly confirm whether its normalized growth is beneath 1.
# output true

###

Experiment: chemical genetic growth profiling, strain panel (AID 1159580);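 further: tested at 20 µM; growth read once vehicle control cultures reached saturation at 30 °C; 1 = growth at the plate median or of vehicle wells; lower values mean less growth of the strain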
Conditions: S. cerevisiae deletion strains, growth OD, locus YDR150W, strain NUM1
Out of some 5,500 compounds screened, about 2,000 (36%) were called active. Another 18% or so got no clear call; they are omitted. Rule as the data show it: active = normalized growth mostly below about 0.91 (no sharp cut-off); inconclusive = no clear call, values can overlap the other calls; inactive = mostly above about 0.92. This is one part of the list.
Write down one outcome, taken from active, inactive

Before answering, review these 5 worked examples.
CCCN1C[C@H](CSC)C[C@@H]2c3cccc4[nH]cc(c34)C[C@H]21 ... inactive
Cc1cc(=O)c2c(o1)-c1c(cc(O)c(O)c1C(=O)O)OC2 ... inactive
COC(=O)c1ccc(Cl)cc1N(Cc1ccccc1)S(C)(=O)=O ... inactive
N#Cc1ccc([N+](=O)[O-])s1 ... active
COc1ccc(-c2coc3cc(O)cc(O)c3c2=O)cc1 ... active

# input // outcome(item) with item = COc1cc(NC(=O)NS(=O)(=O)c2ccc(C)cc2)cc(C(F)(F)F)c1
# output inactive

# input // outcome(item) with item = Cc1onc(-c2c(Cl)cccc2Cl)c1C(=O)N1CCN(c2ncccc2C(F)(F)F)CC1
# output inactive

###

Test: chemical genetic growth profiling, strain panel (AID 1159580);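 further: tested at 20 µM; growth read once vehicle control cultures reached saturation at 30 °C; 1 = growth at the plate median or of vehicle wells; lower values mean less growth of the strain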
Details: S. cerevisiae deletion strains, growth OD, locus YGR252W, strain gcn5, stronger effect = lower value
In all, about 5,500 compounds went through this assay and about 2,000 (36%) were called active. About 18% were inconclusive and are not listed. The list shows a part of the results.
Quick rule for you: normalized growth under 0.9 gets Fulfilled, anything else gets Not fulfilled.

COc1ccc(-c2coc3cc(OC)cc(O)c3c2=O)cc1 ... Fulfilled
COc1ccc(-c2cc(=O)c3ccccc3o2)cc1 ... Fulfilled
CC(=O)Oc1cc(-c2coc3cc(OC(C)=O)c(OC(C)=O)c(OC(C)=O)c3c2=O)cc(OC(C)=O)c1OC(C)=O ... Fulfilled

Now consider a different compound.
# input Regarding COc1cc2cc[n+]3cc4c(OC)c(OC)ccc4cc3c2cc1OC , kindly confirm whether its normalized growth is beneath 0.9.
# output Not fulfilled
